Molecular target: human muscarinic M3 receptor (Homo sapiens, UniProt P20309)
Sequence (P20309 whole entry): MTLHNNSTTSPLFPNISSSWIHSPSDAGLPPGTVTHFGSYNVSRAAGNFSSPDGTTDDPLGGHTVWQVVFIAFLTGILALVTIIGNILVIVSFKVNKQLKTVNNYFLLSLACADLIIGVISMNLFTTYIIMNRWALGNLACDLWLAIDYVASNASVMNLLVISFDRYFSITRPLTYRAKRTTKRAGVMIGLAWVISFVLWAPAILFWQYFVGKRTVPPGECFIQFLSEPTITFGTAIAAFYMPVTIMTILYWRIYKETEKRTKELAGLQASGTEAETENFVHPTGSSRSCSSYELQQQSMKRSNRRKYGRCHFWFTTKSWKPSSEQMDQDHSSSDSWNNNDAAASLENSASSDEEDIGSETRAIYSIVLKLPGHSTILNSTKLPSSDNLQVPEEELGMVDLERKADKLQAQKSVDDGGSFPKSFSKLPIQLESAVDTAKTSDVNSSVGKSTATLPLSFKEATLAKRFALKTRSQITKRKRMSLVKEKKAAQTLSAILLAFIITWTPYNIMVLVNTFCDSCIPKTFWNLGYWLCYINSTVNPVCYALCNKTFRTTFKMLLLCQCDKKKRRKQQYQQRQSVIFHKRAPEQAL
Assay: Alphascreen Surefire phospho-ERK1/2 functional assay, M3
Settings: CHO, read-out: % Emax cf. ACh, M3, CHO cells stably expressing human M3; relative to ACh
quantity: Emax (%)

Previously resolved entries follow.
* CCOC(=O)N1CCC2(CC(N3CCC([C@@H]4CCCN4C(=O)C4CC4)CC3)C2)C1 (single isomer, unassigned) [2-8 Isomer 2] | 4
* CCOC(=O)N1CCC2(CC(N3CCC([C@@H]4CCCN4C(=O)N4CCOCC4)CC3)C2)C1 (single isomer, unassigned) [2-28 Isomer 2] | 5
* CCOC(=O)N1CCC2(CC(N3CCC(c4ncns4)CC3)C2)C1 (single isomer, unassigned) [1-30 Isomer 2] | 5

P. CCOC(=O)N1CCC2(CC(N3CCC([C@@H]4CCCN4C(=O)NC)CC3)C2)C1 (single isomer, unassigned) [2-17 Isomer 2]
Q. CCOC(=O)N1CCC2(CC(N3CCC(c4ncc[nH]4)CC3)C2)C1 (single isomer, unassigned) [1-1 Isomer 2]
R. CCOC(=O)N1CCC2(CC(N3CCC([C@@H]4CCCN4C(=O)N4CCC(F)(F)C4)CC3)C2)C1 (single isomer, unassigned) [2-37 Isomer 2]
Lookup: Task for the reader: rank each entry by its Emax, from the minimum upward. Please write the labels in the order that was asked for.
Found: P, Q, R

###

Biological target: human muscarinic M4 receptor (Homo sapiens)
Construct: expressed in transfected cells
Sequence (P08173 whole entry): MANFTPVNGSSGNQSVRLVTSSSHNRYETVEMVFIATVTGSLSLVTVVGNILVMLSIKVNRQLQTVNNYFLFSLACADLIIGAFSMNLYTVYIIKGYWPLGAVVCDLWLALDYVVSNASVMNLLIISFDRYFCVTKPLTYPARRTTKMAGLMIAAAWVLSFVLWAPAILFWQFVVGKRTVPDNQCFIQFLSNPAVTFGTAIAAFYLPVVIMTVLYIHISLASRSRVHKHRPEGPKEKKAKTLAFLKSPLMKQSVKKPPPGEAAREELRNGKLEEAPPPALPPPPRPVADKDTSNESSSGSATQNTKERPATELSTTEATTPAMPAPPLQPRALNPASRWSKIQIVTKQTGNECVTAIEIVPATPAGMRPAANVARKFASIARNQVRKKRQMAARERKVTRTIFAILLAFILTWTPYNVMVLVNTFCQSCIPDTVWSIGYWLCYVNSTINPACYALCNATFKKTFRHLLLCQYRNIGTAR
Test: Alphascreen Surefire phospho-ERK1/2 functional assay, M4
Assay type: cell-based
Conditions: CHO cells stably expressing human M4; phospho-ERK1/2; * = variable results; read-out: pEC50 M4 (converted)
quantity: EC50 (nM)

* CCOC(=O)N1CCC2(CC(N3CCC(c4ccnc(N)n4)CC3)C2)C1 (single isomer, unassigned) [3-8 Isomer 2] | 25.1
* CCOC(=O)N1CCC2(CC(N3CCC(C4c5ccccc5CN4C(=O)NC)CC3)C2)C1 (single isomer, unassigned) [2-76 Isomer 1] | 39.8

a. CCOC(=O)N1CCC2(CC(N3CCC(N4CCCOC4=O)CC3)C2)C1 (single isomer, unassigned) [4-7 Isomer 2]
b. CCOC(=O)N1CCC2(CC(N3CCC([C@@H]4CCCN4c4ccccn4)CC3)C2)C1 (single isomer, unassigned) [2-79 Isomer 2]
Lookup: Which gives the smaller EC50 number: a or b ? Label of pick, please.
Found: b
(b: 31.6 nM, a: 251 nM)

###

Biological target: UniProtKB P20309
Test: Alphascreen Surefire phospho-ERK1/2 functional assay, M3
Conditions: CHO cells stably expressing human M3; relative to ACh
quantity: % Emax cf. ACh, M3 (%)

Previously resolved entries follow.
• CCOC(=O)N1CCC2(CC(N3CCC(C4c5ccccc5CN4C(=O)NC)CC3)C2)C1 (single isomer, unassigned) [2-76 Isomer 2] = 14
• CCOC(=O)N1CCC2(CC(N3CCC([C@@H]4CCCN4C(=O)NCc4ccccn4)CC3)C2)C1 (single isomer, unassigned) [2-54 Isomer 2] = 23
• CCOC(=O)N1CCC2(CC(N3CCC(N4CC(F)(F)C[C@@H]4C(C)O)CC3)C2)C1 (single isomer, unassigned) [2-109 Isomer 4] = 9

1. CCOC(=O)N1CCC2(CC(N3CCC(N4CC(F)(F)C[C@@H]4C(C)O)CC3)C2)C1 (single isomer, unassigned) [2-109 Isomer 2]
2. CCOC(=O)N1CCC2(CC(N3CCC([C@@H]4CCCN4C(=O)N(C)OC)CC3)C2)C1 (single isomer, unassigned) [2-34 Isomer 1]
Lookup: Which gives the smaller % Emax cf. ACh, M3 number: 1 or 2 ? Label of pick, please.
Found: 2
(2: 8%, 1: 26%)
